# measured_target: bovine seminal vesicle prostaglandin synthetase (PGS) (Bos taurus, UniProt O62664)
# Sequence (O62664 25-600): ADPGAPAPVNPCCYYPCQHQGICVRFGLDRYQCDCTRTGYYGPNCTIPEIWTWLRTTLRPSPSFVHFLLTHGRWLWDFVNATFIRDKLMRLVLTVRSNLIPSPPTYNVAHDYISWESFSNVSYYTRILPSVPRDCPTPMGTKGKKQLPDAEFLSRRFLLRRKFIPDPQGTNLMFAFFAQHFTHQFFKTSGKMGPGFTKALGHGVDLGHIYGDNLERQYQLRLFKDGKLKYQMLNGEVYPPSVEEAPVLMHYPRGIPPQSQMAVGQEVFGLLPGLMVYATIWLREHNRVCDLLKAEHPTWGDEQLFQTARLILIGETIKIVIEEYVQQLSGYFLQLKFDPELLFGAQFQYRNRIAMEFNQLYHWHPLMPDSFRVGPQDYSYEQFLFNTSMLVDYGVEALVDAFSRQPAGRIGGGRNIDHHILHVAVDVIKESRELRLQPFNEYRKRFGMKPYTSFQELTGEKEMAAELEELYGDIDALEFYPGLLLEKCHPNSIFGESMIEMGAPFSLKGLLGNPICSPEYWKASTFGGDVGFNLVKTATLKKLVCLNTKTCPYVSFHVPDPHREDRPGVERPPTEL
pIC50: −log10 of the molar value.
measure: pIC50

compound	experimental_value
COc1ccc(CC2c3ccccc3-c3nc(S(=O)(=O)C(F)(F)F)[nH]c32)cc1 (stereo not shown)	5.92
Fc1ccc(C=C2c3ccccc3-c3nc(SC(F)(F)F)[nH]c32)cc1	5.57
CCCCC1C(=O)N(c2ccccc2)N(c2ccccc2)C1=O [Phenylbutazone, phenylbutazone, reference compound]	3.57
COc1ccc(C=C2c3ccccc3-c3nc(SC(F)(F)F)[nH]c32)cc1	6.24

---

# measured_target: bovine seminal vesicle prostaglandin synthetase (PGS) (Bos taurus)
measure: IC50 (nM)

molecule	measure	value_operator	experimental_value
COc1ccc(C=C2c3ccccc3-c3nc(S(=O)(=O)C(F)(F)F)[nH]c32)cc1	IC50	=	20
[O-][S+](c1nc2c([nH]1)C(=Cc1ccc(F)cc1)c1ccccc1-2)C(F)(F)F (centres unmarked)	IC50	=	480
FC(F)(F)Sc1nc2c([nH]1)/C(=C/c1ccccc1)c1ccccc1-2	IC50	<	75000
O=S(=O)(c1nc2c([nH]1)/C(=C\c1ccccc1)c1ccccc1-2)C(F)(F)F	IC50	=	930
O=S(=O)(c1nc2c([nH]1)/C(=C/c1ccccc1)c1ccccc1-2)C(F)(F)F	IC50	=	23
